Origin of measurements: PubChem BioAssay AID686959

Assay: small molecules binding CAG repeat RNA – biochemical, fluorescence, dose response (AID 686959)
Details: r(CAG) RNA repeat binding
Activity calls are given as the source filed them. No cut-off is given here; in the data, nearly all actives have IC50 up to about 8.1 µM.
// IC50 lookup, one value per entry

Field: example entries. Status: answers known.
{"columns": ["Compound", "Val"],
 "data": [
  ["COC(=O)c1sc(N2C(=O)C(O)=C(C(=O)c3ccc(C)o3)C2c2ccc([N+](=O)[O-])cc2)nc1C (centres undefined)", "636 nM (active)"],
  ["N#CC1=C(S)N(c2ccccc2)C(c2ccc(-c3cc(Cl)ccc3Cl)o2)NC1=O (centres undefined)", "1470 nM (active)"],
  ["CC(C)c1ccc(C2c3[nH]c4ccccc4c3C[C@H]3C(=O)N(c4ccccc4C(=O)N4CCC[C@@H]4C(=O)O)C(=O)N23)cc1 (some centres undefined)", "2840 nM (active)"],
  ["CCc1nnc(NS(=O)(=O)c2ccc(N/C=C/C(=O)c3ccc(C)cc3)cc2)s1", "1900 nM (active)"],
  ["O=C(C1=C(O)C(=O)N(c2nc3ccc(Cl)cc3s2)C1c1ccco1)c1ccco1 (centres undefined)", "987 nM (active)"]
]}

Lab book: IC50 of N#CC(C#N)=C(Nc1ccc(F)cc1)SCc1cccc(Br)c1 noted as 7570 nM (active)

Lab book: IC50 of CC(=O)C1=C(O)C(=O)N(c2cc(C(C)(C)C)on2)C1c1ccc(Br)cc1 (centres undefined) noted as 2490 nM (active)

Lab book: IC50 of Oc1ccc(/C=N/Nc2ccnc3cc(Cl)ccc23)c(O)c1O noted as 2500 nM (active)

Lab book: IC50 of CC(C)c1ccc(C2c3[nH]c4ccccc4c3C[C@H]3C(=O)N(c4ccccc4C(=O)N4CCC[C@H]4C(=O)O)C(=O)N23)cc1 (some centres undefined) noted as 3350 nM (active)
